Reference source for all entries: the OPERA property sets (Mansouri et al. 2018)

outcomeMeasure: solubility (mM)

| molecule | outcomeMeasure | endpointUnit | assayResult |
| --- | --- | --- | --- |
| CCOCCOC(=O)CCCCCCCCC(=O)OCCOCC | solubility | mM | 0.635 |
| CC(C)CCOCC(O)COCCC(C)C | solubility | mM | 43 |
| CC(C)C1OCCO1 | solubility | mM | 861 |
| CC(C)C(Br)C(=O)N[C@@H](C)C(=O)O (mixture of isomers) | solubility | mM | 329 |
| C=CC(O)C(=O)OCC (centres undefined) | solubility | mM | 2310 |
| NC(=O)C[C@H](NC(=O)CCl)C(=O)O | solubility | mM | 479 |
| O=C1Cc2c(ccc3ccccc23)O1 | solubility | mM | 1.96 |
| CCOC(=O)[C@H](C)NC(=O)CCl | solubility | mM | 345 |
| O=C(c1ccccc1I)N(O)c1ccccc1 | solubility | mM | 0.295 |
| O=C(O)c1cc(=O)nc(-c2ccccc2)[nH]1 | solubility | mM | 6.15 |
| O=C(Cc1ccccc1)N[C@@H](CSSC[C@H](NC(=O)Cc1ccccc1)C(=O)O)C(=O)O | solubility | mM | 14.7 |
| O=C(O)CSSSSCC(=O)O | solubility | mM | 35.3 |
| CCC1(CC(C)=O)C(=O)NC(=O)NC1=O | solubility | mM | 171 |
| N[C@@H](Cc1cc([N+](=O)[O-])c(O)c([N+](=O)[O-])c1)C(=O)O | solubility | mM | 30.7 |
